Would you kindly list EC50 (nM); loss of fluorescence of Fpn-GFP cells, flow cytometry for each of these binders?
Target: T1, ferroportin tagged at the C-terminus with green fluorescent protein (ECR293/Fpn-GFP cells)
T1 sequence (Q9NP59 whole entry, species assumed, looked up): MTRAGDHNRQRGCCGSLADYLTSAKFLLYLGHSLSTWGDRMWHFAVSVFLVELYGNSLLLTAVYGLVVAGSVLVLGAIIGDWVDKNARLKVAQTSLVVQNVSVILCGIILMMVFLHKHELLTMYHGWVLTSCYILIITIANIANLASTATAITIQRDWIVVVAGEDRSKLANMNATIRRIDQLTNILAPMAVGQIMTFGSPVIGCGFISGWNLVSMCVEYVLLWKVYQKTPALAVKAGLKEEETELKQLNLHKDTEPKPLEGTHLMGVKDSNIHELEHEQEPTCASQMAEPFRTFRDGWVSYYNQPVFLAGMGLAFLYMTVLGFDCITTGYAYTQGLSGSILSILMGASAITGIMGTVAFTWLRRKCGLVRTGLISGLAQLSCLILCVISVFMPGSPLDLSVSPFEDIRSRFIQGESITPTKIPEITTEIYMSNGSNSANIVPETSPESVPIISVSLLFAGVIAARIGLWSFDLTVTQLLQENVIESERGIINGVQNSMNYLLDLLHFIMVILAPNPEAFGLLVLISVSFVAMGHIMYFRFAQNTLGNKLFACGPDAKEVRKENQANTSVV
Assay: cell-based or functional assay
Numbered stars: 1 amine (or outer) side, 2 acyl side, 3 side chain; on linkers, the order of the positions; unused ones are H or OH. Square brackets hold non-standard residues; d marks the D form. Ends that are not written are not given here. Cys(S-tBut) = S-t-butylthio-L-cysteine, CC(C)(C)SSC[C@H](N[*:1])C(=O)[*:2]
One number for each entry, in nM.

>>> recorded_number("DTHFPIAIFC-NH2 [Hep10 (Hep1-10 C7A)]")
100

Now look at this one.
Quick one: EC50 (nM); loss of fluorescence of Fpn-GFP cells, flow cytometry of DTHAPI[Cys(S-tBut)]IF-NH2 (N-terminus assumed; SMILES CC[C@H](C)[C@H](NC(=O)[C@H](CSSC(C)(C)C)NC(=O)[C@@H](NC(=O)[C@@H]1CCCN1C(=O)[C@H](C)NC(=O)[C@H](Cc1c[nH]cn1)NC(=O)[C@@H](NC(=O)[C@@H](N)CC(=O)O)[C@@H](C)O)[C@@H](C)CC)C(=O)N[C@@H](Cc1ccccc1)C(N)=O) [Hep9C7-SStBut] ?
700
